test system: SH-SY5Y; assay: Cytotoxicity against human SH-SY5Y cells assessed as growth inhibition measured after 72 hrs by MTT assay
observable: IC50

INSERT INTO assay_data (structure_smiles_string, observable, measurement) VALUES
  ('O=C(Oc1ccc([N+](=O)[O-])c2cccnc12)c1ccc(Cl)cc1Cl', 'IC50', '> 100 µM');

====

biological target: Bifunctional peptidase and (3S)-lysyl hydroxylase JMJD7 (Homo sapiens); experiment: Inhibition of N-terminal His-tagged human JMJD7 (1 to 316 residues) expressed in Escherichia coli BL21 (DE3) luciferase based succinate-gloTM JmjC demethylase/hydroxylase assay
Sequence (P0C870 whole entry, the tested form may be a part): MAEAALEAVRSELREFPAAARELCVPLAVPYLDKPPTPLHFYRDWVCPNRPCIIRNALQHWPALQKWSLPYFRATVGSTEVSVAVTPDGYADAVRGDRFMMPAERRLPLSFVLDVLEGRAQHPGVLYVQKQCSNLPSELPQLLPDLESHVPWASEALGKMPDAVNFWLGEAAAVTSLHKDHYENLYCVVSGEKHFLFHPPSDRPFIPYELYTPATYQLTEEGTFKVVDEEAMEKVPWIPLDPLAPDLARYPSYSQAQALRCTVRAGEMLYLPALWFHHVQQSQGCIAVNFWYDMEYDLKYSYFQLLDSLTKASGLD
pIC50: −log10 of the molar value.
observable: pIC50

INSERT INTO results (molecule, system_tested, measurement) VALUES
  ('Oc1c(C(Nc2ccccn2)c2ccccc2)ccc2cccnc12 (centres undefined)', 'Bifunctional peptidase and (3S)-lysyl hydroxylase JMJD7 (Homo sapiens)', 4.50),
  ('COc1cccc(-c2ccc(NC(=O)C3=C(C(=O)O)CCC3)c(F)c2)c1 [VIDOFLUDIMUS]', 'Bifunctional peptidase and (3S)-lysyl hydroxylase JMJD7 (Homo sapiens)', 5.15),
  ('COc1ccc(CCC(=O)Nc2ccccc2C(=O)O)cc1OC', 'Bifunctional peptidase and (3S)-lysyl hydroxylase JMJD7 (Homo sapiens)', 4.48),
  ('CCCNC(=O)c1ccc(-c2nc3ccccc3s2)s1', 'Bifunctional peptidase and (3S)-lysyl hydroxylase JMJD7 (Homo sapiens)', 4.96);

====

test system: Jurkat; experiment: Cytotoxicity against human Jurkat cells assessed as growth inhibition measured after 72 hrs by MTT assay
observable: IC50 (µM)

INSERT INTO assay_data (structure_smiles_string, observable, units_symbol, measurement) VALUES
  ('O=C(Oc1ccc([N+](=O)[O-])c2cccnc12)c1ccc(Cl)cc1Cl', 'IC50', 'µM', 15);
